# TARGET OR TEST SYSTEM: 5-hydroxytryptamine receptor 2A (Rattus norvegicus, UniProt P14842)
# Sequence (P14842 whole entry): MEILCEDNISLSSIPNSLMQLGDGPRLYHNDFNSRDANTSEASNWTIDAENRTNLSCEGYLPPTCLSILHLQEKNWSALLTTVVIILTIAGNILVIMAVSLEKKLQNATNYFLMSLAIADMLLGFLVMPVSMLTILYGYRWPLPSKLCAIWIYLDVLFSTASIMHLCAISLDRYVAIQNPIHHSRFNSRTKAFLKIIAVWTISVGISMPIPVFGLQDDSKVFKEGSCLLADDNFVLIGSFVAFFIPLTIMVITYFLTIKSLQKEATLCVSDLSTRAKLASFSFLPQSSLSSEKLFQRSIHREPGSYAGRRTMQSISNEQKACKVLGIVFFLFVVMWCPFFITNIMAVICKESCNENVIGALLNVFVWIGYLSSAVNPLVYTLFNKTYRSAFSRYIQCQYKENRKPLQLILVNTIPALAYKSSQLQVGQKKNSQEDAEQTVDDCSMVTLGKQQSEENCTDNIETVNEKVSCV
# PROTOCOL DETAILS: Binding affinity against 5-hydroxytryptamine 2A receptor from rat cortex using [3H]ketanserin as the radioligand.
pKi: −log10 of the molar value.
READOUT NAME: pKi

Give the measured pKi of C1=C(CN2CCOCC2)COc2c1cccc2OC[C@H]1CNCCO1.CS(=O)(=O)O .
< 5.00

====

# TARGET OR TEST SYSTEM: D(1A) dopamine receptor (Rattus norvegicus)
# Sequence (P18901 whole entry): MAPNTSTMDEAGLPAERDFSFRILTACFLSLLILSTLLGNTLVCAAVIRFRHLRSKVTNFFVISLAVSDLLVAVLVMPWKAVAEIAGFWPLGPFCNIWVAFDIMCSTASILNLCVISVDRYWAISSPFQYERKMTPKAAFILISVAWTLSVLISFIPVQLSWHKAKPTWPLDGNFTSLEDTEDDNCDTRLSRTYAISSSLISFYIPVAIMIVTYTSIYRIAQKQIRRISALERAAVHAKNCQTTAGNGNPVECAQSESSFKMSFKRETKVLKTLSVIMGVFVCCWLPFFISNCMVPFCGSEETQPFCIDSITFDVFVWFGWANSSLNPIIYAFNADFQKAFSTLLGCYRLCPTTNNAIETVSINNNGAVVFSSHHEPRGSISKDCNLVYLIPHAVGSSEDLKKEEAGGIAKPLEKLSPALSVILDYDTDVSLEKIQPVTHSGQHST
# PROTOCOL DETAILS: Binding affinity against Dopamine receptor D1 in rat striatum using [3H]-SCH- 23390 as the radioligand.
Overview of recorded Ki for various molecules

Give the measured Ki of C1=C(CN2CCOCC2)COc2c1cccc2OC[C@@H]1CNCCO1.Cl .
> 10 µM

Check C1=C(CN2CCOCC2)COc2c1cccc2OC[C@H]1CNCCO1.CS(=O)(=O)O too.
> 10 µM
